# target_system: Serine/threonine-protein kinase Nek2 (Homo sapiens, UniProt P51955)
# Sequence (P51955 whole entry): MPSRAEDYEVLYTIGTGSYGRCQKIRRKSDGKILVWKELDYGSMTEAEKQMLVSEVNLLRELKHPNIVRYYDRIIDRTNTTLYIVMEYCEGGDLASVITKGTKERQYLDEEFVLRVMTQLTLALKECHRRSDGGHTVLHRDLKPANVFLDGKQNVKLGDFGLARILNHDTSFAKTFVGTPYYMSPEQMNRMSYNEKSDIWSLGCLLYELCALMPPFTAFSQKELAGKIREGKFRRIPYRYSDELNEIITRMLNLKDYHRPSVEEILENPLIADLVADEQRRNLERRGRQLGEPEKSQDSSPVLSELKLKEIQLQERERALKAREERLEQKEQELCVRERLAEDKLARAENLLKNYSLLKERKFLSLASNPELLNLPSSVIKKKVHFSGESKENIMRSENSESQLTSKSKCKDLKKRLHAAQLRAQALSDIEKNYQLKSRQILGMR
# test_summary: Inhibition of N-terminal His6-tagged full-length recombinant human NEK2 expressed in baculovirus infected sf21 cells using biotin labelled-STK-3 substrate measured after 60 mins by HTRF assay
readout_name: IC50 (µM)

>>> result_number("COc1cc(-c2cnc3cc(N4CCN(C)CC4)ccn23)ccc1C(N)=O")
19.3

(a) CN1CCN(c2ccn3c(-c4ccc(C(=O)NO)c(OCc5ccccc5C(F)(F)F)c4)cnc3c2)CC1
(b) C[C@@H](Oc1cc(-c2cnc3cc(N4CCN(C)CC4)ccn23)ccc1C(N)=O)c1ccccc1C(F)(F)F
(c) CC(Oc1cc(-c2cnc3cc(N4CCN(C)CC4)ccn23)ccc1C(N)=O)c1ccccc1C(F)(F)F (centres undefined)
Incoming: Thanks in advance: please rank these 3 entries by IC50, highest to lowest. Respond with the label ranking, as requested.
Outgoing: a, c, b

(P) CN(C)CCn1cc(-c2ccn3c(-c4ccc(C(N)=O)c(OCc5cccc(C(F)(F)F)c5)c4)cnc3c2)cn1
(Q) CNC(=O)c1ccc(-c2cnc3cc(N4CCN(C)CC4)ccn23)cc1OC(C)c1ccccc1C(F)(F)F (centres undefined)
(R) COC(=O)c1ccc(-c2cnc3cc(N4CCN(C)CC4)ccn23)cc1OC(C)c1ccccc1C(F)(F)F (centres undefined)
(S) CN1CCN(c2ccn3c(-c4ccc(C(N)=O)c(OCc5ccccc5)c4)cnc3c2)CC1
Incoming: Rank ascending by IC50. // respond by listing labels in the order requested
Outgoing: P, S, R, Q
(P: 0.007 µM, S: 3.21 µM, R: 42.6 µM, Q: 197 µM)
